Value source: paper PMC9266822

Recorded Thermal Stability (°C) for the following compounds
- Test system: KRAS Q61R
- Construct: GG-Hs.KRAS4b (2-188) Q61R; His6-MBP (N, cleaved yes); made in house; host or cells: E. coli
- experimental details: Protein-Probe thermal stability assay
- Format: binding, human
- test conditions: Table S1; KRAS Q61R 50 nM; EDTA 0.5 mM, MgCl2 1 mM, GDP 10 mM, GTP 10 µM as headed

| compound | Thermal Stability (°C) |
| --- | --- |
| Nc1nc2c(ncn2[C@@H]2O[C@H](COP(=O)(O)OP(=O)(O)OP(=O)(O)O)[C@@H](O)[C@H]2O)c(=O)[nH]1 [GTP, guanosine-5’-triphosphate] | 71.7 |
| Nc1nc2c(ncn2[C@@H]2O[C@H](COP(=O)(O)OP(=O)(O)O)[C@@H](O)[C@H]2O)c(=O)[nH]1 [GDP, guanosine-5’-diphosphate] | 71.3 |
| O=C(O)CN(CCN(CC(=O)O)CC(=O)O)CC(=O)O | 51.8 |
| [Cl-].[Cl-].[Mg+2] | 71.9 |
